System: ACHN
METHOD DESCRIPTION: NCI tumour cell line growth inhibition, 48 h
Calls of active or inactive are those of the source. No stated cut-off is given here; in the data, active = GI50 up to about 1.1 µM and inactive = higher.
Give one outcome, nothing more. List: YES (active), NO (inactive)

// below: answered molecules
CC[C@H](C)[C@@H]([C@@H](CC(=O)N1CCC[C@H]1[C@H](OC)[C@@H](C)C(=O)NCCc1ccccc1)OC)N(C)C(=O)C(NC(=O)[C@H](C(C)C)N(C)C)C(C)C (some centres undefined)    YES
CC1=NN(C(=O)Cc2ccccc2)C(=O)/C1=C\c1ccco1    NO
CC(C)(C)OC(=O)N1CCC23CCCC2C(=O)CC=C13 (centres undefined)    NO
O=C1CSC(c2c[nH]c3ccccc23)N1c1ccc(Cl)cc1 (centres undefined)    NO
CC(C)(C)OC(=O)N1CCCC1C(=O)NC(c1ccccc1)c1ccccc1 (centres undefined)    NO
COC1C(O)C(C)OC(O[C@@H]2C[C@H]3CC[C@@H]4[C@H](CC[C@]5(C)[C@@H](C6=CC(=O)OC6)CC[C@]45O)[C@@]3(C)[C@H](O)C2)C1O (some centres undefined)    YES
CC(C)(CCl)NC(=O)c1cccc(C(=O)NC(C)(C)CCl)n1    NO
O=C(NCCCCCCNC(=O)c1cccc2ccccc12)Nc1cccc2ccccc12    NO
CCOC1=C/C(=N\Nc2ccc([N+](=O)[O-])cc2)CCC1    NO
COCCOCCOC1=C(Cl)C(=O)c2c(O)ccc(O)c2C1=O    NO

Hey, what did the test say about CCC1(O)C[C@H]2CN(CCCc3c([nH]c4ccccc34)[C@@](C(=O)OC)(c3cc4c(cc3OC)N(C)C3[C@](O)(C(=O)OC)[C@H](OC(C)=O)[C@]5(CC)C=CCN6CC[C@]43[C@H]65)C2)C1 (some centres undefined) ? NO

Hey, what did the test say about NC1=NN(c2ccccc2)C(=O)C1C(=O)C(=O)Nc1ccc(Cl)cc1 (centres undefined) ? NO

Hey, what did the test say about S=C1Cc2cc3ccccc3nc2-c2ccccc2N1 ? NO

Hey, what did the test say about COc1ccc(-n2c(=O)n(C)c(=O)n2-c2c(C)c(C)c(C)c(C)c2C)cc1 ? NO

Hey, what did the test say about CCN(CC)Cc1sc2nc3ccccc3n2c1-c1ccc(OC)cc1 ? NO

Hey, what did the test say about COc1ccc(C2=NN(C(=O)c3cccnc3)C(O)(c3cc(F)c(Cl)cc3Cl)C2)cc1OC (centres undefined) ? NO

Hey, what did the test say about CC(=O)N1C=Cc2c(c(C)c3c([nH]c4ccccc43)c2C)C1 ? YES

Hey, what did the test say about O=S(O)c1cc(Cl)c(O)c(Cl)c1 ? NO

Hey, what did the test say about O=C1C(OC(=O)c2ccccc2)=C(c2ccc(O)cc2)C(=O)C(OC(=O)c2ccccc2)=C1c1ccc(O)cc1 ? NO

====

Test system: UO-31
METHOD DESCRIPTION: NCI tumour cell line growth inhibition, 48 h
The source made the active and inactive calls. Rule as the data show it: active = GI50 up to about 1.1 µM and inactive = higher.
Give one outcome, nothing more. List: active, inactive

O=C1/C(=N/c2ccc(Nc3ccccc3)cc2)Oc2ccccc21    inactive
COc1cc([C@@H]2c3cc4c(cc3[C@@H](OC(=O)c3cccc(N)c3)C3COC(=O)[C@@H]32)OCO4)cc(OC)c1O (stereo partly specified)    inactive
COC(=O)C1(Cc2ccccc2)Cc2ccc3c(c2C1=O)CCC3 (stereo unspecified)    inactive
C/C(=N/Nc1nc(C)cc(O)n1)C(=O)O    inactive
COc1ccc2c3c([nH]c2c1)CCN(CCCC(=O)c1ccc(F)cc1)C3    inactive

Hey, what did the test say about CC(=C(C(N)=O)C(N)=O)C1C=C(c2cccs2)CC(c2ccc(Cl)cc2)=C1O (stereo unspecified) ? inactive

Hey, what did the test say about CCC1CN2CCC3(c4ccccc4)CC(C(=O)OC)=CC1C23 (stereo unspecified) ? inactive

Hey, what did the test say about COC(=O)c1nc(-c2ccc3c(n2)C(=O)C(=N)C(OC)=C3O)c(N)c(-c2ccc(OC)c(OC)c2O)c1C ? active

Hey, what did the test say about CN/N=C(/Cc1occc(=O)c1O)C(=O)Nc1ccccc1C ? inactive

Hey, what did the test say about CC(C)C1=CC23CCC4C(C)(C(=O)O)CCCC4(C)C2CC1C1C(=O)N(CCCCCCN2C(=O)C4C5CC6C7(C)CCCC(C)(C(=O)O)C7CCC6(C=C5C(C)C)C4C2=O)C(=O)C13 (stereo unspecified) ? inactive

Hey, what did the test say about C[Si](C)(OCCS(=O)(=O)O)C1S(=O)(=O)OCCOS1(=O)=O ? inactive

Hey, what did the test say about O=C1C(OC(=O)c2ccccc2)=C(c2ccc(O)cc2)C(=O)C(OC(=O)c2ccccc2)=C1c1ccc(O)cc1 ? inactive

Hey, what did the test say about CC(=O)OC12c3ccccc3-c3ccccc3C1C1C(=O)OC(=O)C12 (stereo unspecified) ? inactive
